Test system: Human dendritic cells
Assay: Induction of IFN-gamma production by DC (ELISA)
Assay type: cell-based
Conditions: DC isolated from individual B; 100 μg, 48 hours
Experimental Endpoint: IFN-gamma production by DC (fold increase compared to untreated DC) (fold)
Kindly provide the numeric value in fold only, without the unit symbol.

Worked cases, answers included:
{"columns": ["Substance", "Experimental Result"],
 "data": [
  ["5′GTGTGT3′ [N1A]", 1.0],
  ["5′GGGAGG3′ [N6A] (unmodified DNA)", 1.0],
  ["5′GGGGGG3′ [N5B]", 5.0],
  ["5′GGGGGG3′ [N5A] (unmodified DNA)", 1.1],
  ["5′ GTGTGT3′ [N1B]", 1.0]
]}

Consider the additional substance presented here.
Data request: GET IFN-gamma production by DC (fold increase compared to untreated DC) where system = Human dendritic cells and item = 5′GGTGGG3′ [N2B]
Data returned: 1.2
